experiment: Inhibition of [3H]PDBu binding to murine brain PKC (protein kinase C); design: species or system Mus musculus
Listing of entries alongside the reported IC50.
readout.kind: IC50

compound	endpoint.result
O=C(OC1CC[C@H](/C=C/CCO)CC1OC(=O)c1ccccc1)c1ccccc1 (some centres undefined)	> 1000 µM
O=C(OC1CC[C@H](/C=C/CO)CC1OC(=O)c1ccccc1)c1ccccc1 (some centres undefined)	> 1000 µM
O=C(OC1CC[C@H](CO)CC1OC(=O)c1ccccc1)c1ccccc1 (some centres undefined)	> 1000 µM
CCCCCCCCCCCCCC(=O)O[C@@H]1[C@@H](C)[C@@]2(O)[C@@H](C=C(CO)C[C@]3(O)C(=O)C(C)=C[C@@H]23)[C@@H]2C(C)(C)[C@]12OC(C)=O [PHORBOL MYRISTATE ACETATE]	0.01 µM
CCCCCCCC(=O)OC1CC[C@H](CO)CC1OC(=O)CCCCCCC (stereo in doubt; 20b)	1000 µM
CCCCCCCC(=O)OC1CC[C@H](CO)CC1OC(=O)CCCCCCC (stereo in doubt; 20a)	> 1000 µM
CCCCCCCC(=O)OC1CC[C@H](/C=C/CCO)CC1OC(=O)CCCCCCC (some centres undefined)	> 1000 µM
CCCCCCCC(=O)OC1CC[C@H](/C=C/CO)CC1OC(=O)CCCCCCC (some centres undefined)	> 1000 µM
CCCCCCCC(=O)OC[C@H](CO)OC(=O)CCCCCCC	5 µM
